targetSystem: T1, PfAMA1 (DI-DII of Plasmodium falciparum Apical Membrane Antigen 1, 3D7, residues 104-438) (Plasmodium falciparum, UniProt Q7KQK5 104-438)
T1 construct: codon-optimized synthetic gene; also called native PfAMA1; PfAMA1 DI-DII construct
T1 sequence: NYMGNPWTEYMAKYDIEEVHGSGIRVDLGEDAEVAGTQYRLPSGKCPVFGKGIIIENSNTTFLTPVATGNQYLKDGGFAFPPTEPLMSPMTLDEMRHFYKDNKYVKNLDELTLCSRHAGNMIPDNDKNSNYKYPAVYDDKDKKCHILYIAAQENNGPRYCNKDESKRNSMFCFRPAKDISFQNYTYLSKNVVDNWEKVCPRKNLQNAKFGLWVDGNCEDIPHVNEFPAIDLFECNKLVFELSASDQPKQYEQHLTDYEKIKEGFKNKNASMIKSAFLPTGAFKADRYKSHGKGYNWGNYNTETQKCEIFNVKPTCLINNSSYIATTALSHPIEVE
assayDetails: fluorescence polarisation; anisotropy kinetics at 25°C; association: 10 nM labeled probe with 50, 100, 200 nM protein; dissociation: 10 nM preformed complex challenged with 2500 or 5000 nM unlabeled PfRON2sp1; global fit to a one-intermediate model; PBS pH 7.4, at least 0.1% BSA
assayContext: both partners purified
Bridge positions count the residues as written; N and C are the ends. Ends that are not written are not given here. * marks the point of attachment. 5FAM = O=C1OC2(c3ccc(O)cc3Oc3cc(O)ccc32)c2ccc(C(=O)*)cc21
property: pKd
One number for each entry, as −log10 of the molar value.

Fill in: pKd of 5FAM-DITQQAKDIGAGPVASCFTTRMSPPQQICLNSVVNTALS (disulfide 17-29, Rhoptry Neck Protein 2 (RON2) of Plasmodium falciparum, residues 2021-2059; also called labeled peptide; labeled probe; source: synthetic peptide, bought: Kinexus (purity ≥ 95%)) [F*PfRON2sp1 (39 aa) [2021-2059], fluorescein-labeled PfRON2sp1 peptide] is ___ 7.42
